Data credit: patent US20240279318A1

Tested on: T1, AFP158/HLA-A*02:01 complex (human)
T1 construct: flowed as analyte in SPR
Experiment summary: SPR, crude scFv captured, pMHC analyte;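 note: pMHC analyte injected at three concentrations, association phase of one hundred seconds, then running buffer for dissociation, rates fitted from both curves, KD derived from the rates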

Binder | Value units | Kd
AS170036 VL1VH1-98Q108A (scFv, also called 37-AS170036 VL1VH1-98Q108A) scFv: QSALTQPRSVSGSPGQSVTISCAGTSSDVGSENYVSWYQQHPGKAPKLMIYQVNKRASGVPDRFSGSKSGNTASLTISGLQAEDEADYYCASYRSSDQNIVFGGGTKLTVLGGGGSGGGGSGGGGSEVQLVESGGGLVQPGGSLRLSCAASGFTFSSYAMSWVRQAPGKGLEWVSTINSGTGSPYYADSVKGRFTISRDNSKNTLYLQMNSLRAEDTAVYYCAKNFFDGSWFLAPPAMDYWGQGTLVTVSSHHHHHH | nM | 11
AS170036 VL1VH1-57H98F (scFv, also called 07-AS170036 VL1VH1-57H98F) scFv: QSALTQPRSVSGSPGQSVTISCAGTSSDVGSENYVSWYQQHPGKAPKLMIYQVNKRASGVPDRFSGSKSGNTASLTISGLQAEDEADYYCASYRSSDFNIVFGGGTKLTVLGGGGSGGGGSGGGGSEVQLVESGGGLVQPGGSLRLSCAASGFTFSSYAMSWVRQAPGKGLEWVSTINSGTGHPYYADSVKGRFTISRDNSKNTLYLQMNSLRAEDTAVYYCAKNFFDGSWFLGPPAMDYWGQGTLVTVSSHHHHHH | nM | 7.4
